The following compounds are shown together with reported melting point values.

{"columns": ["molecule", "melting point"],
 "data": [
  ["CCCc1ccccc1Oc1nnc(Cl)cc1O", "170 to 172 °C"],
  ["CCc1ccc2c(c1Oc1nnc(Cl)cc1O)CCC2", "193 to 196 °C"],
  ["Cc1cc(Br)c(C)c(Br)c1Oc1nnc(Cl)cc1O", "241 to 248 °C"],
  ["CC1(C)Cc2cccc(Oc3nnc(Cl)cc3O)c2C1", "220 to 223 °C"],
  ["Cc1cc(C)c(Oc2nnc(Cl)cc2O)c(Br)c1", "254 to 256 °C"]
]}

Ask: If you can, please state the reported melting point value of CCc1cccc(I)c1Oc1nnc(Cl)cc1O .
Result: 242 to 244 °C

Ask: Try the compound Cc1cccc(C(C)(C)C)c1Oc1nnc(Cl)cc1O
Result: 135 to 136 °C

Ask: Try the compound Oc1cc(Cl)nnc1Oc1cccc2c1CCC2
Result: 230 to 232 °C

Ask: Try the compound CC(C)(C)c1cccc(C2CC2)c1Oc1nnc(Cl)cc1O
Result: 230 to 231 °C

Ask: Try the compound CC(C)(C)c1ccccc1Oc1nnc(Cl)cc1OS(=O)(=O)c1ccc(Cl)cc1
Result: 83.5 to 84.5 °C

Ask: Try the compound Cc1cccc(C2CC2)c1Oc1nnc(Cl)cc1OC(=O)C(C)(C)Br
Result: 69 to 71 °C

Ask: Try the compound CSc1ccccc1Oc1nnc(Cl)cc1O
Result: 174 to 175 °C

Ask: Try the compound CCC1(c2ccccc2Oc2nnc(Cl)cc2O)CC1
Result: 162 to 165 °C

Ask: Try the compound O=[N+]([O-])c1ccccc1Oc1nnc(Cl)cc1O
Result: 99 to 100 °C

Ask: Try the compound Oc1cc(Cl)nnc1Oc1ccccc1C1CCCC1
Result: 178 to 180 °C

Ask: Try the compound Cc1cccc(C2CC2)c1Oc1nnc(Cl)cc1OC(=O)OCC(C)C
Result: 72 to 74 °C

Ask: Try the compound COc1cccc(Oc2nnc(Cl)cc2O)c1I
Result: 231 to 234 °C

Ask: Try the compound COc1cccc(Oc2nnc(Cl)cc2O)c1
Result: 199 to 203 °C

Ask: Try the compound Oc1cc(Cl)nnc1Oc1ccc(OCc2ccccc2)cc1
Result: 170 to 180 °C

Ask: Try the compound Cc1ccc(S(=O)(=O)Oc2cc(Cl)nnc2Oc2ccc(Cl)cc2C)cc1
Result: 115 to 116 °C
